experimentalTarget: AR protein (Homo sapiens, UniProt P10275, T878A)
Construct: degradation activity of the compounds disclosed in the present disclosure on AR protein in LNCaP cells; host or cells: LNCaP FGC
Sequence (P10275 whole entry T878A): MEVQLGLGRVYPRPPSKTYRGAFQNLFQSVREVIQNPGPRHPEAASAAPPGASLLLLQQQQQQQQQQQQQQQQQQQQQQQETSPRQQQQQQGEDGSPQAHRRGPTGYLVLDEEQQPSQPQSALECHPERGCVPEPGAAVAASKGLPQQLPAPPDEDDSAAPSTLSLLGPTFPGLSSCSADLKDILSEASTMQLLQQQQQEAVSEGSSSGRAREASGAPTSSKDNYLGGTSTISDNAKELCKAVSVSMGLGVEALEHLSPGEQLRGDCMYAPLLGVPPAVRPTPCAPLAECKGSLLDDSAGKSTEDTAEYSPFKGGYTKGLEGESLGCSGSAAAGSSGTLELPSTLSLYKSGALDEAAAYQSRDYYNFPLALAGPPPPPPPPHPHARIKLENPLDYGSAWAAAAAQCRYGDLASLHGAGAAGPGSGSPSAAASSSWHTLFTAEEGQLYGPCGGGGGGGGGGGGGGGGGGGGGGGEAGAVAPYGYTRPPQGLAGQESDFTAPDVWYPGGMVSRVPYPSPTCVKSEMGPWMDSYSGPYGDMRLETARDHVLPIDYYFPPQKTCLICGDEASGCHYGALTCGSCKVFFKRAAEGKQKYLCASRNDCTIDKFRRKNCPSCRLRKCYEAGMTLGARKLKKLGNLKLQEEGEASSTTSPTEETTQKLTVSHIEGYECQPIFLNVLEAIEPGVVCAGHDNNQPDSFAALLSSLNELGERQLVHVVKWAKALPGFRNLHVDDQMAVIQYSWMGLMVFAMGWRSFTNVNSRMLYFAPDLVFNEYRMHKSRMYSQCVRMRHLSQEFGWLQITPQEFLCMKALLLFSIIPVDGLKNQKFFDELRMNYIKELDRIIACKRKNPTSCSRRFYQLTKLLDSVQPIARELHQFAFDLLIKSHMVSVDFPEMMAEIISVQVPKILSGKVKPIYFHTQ
assayRemarks: Degradation of AR protein in LNCaP cells (Western blot)
Type: cell-based
appliedConditions: LNCaP, 8 h, read-out: Degradation rates of the AR protein in LNCaP cells, 10 nM (%)
Reported inhibition at 0.01 µM values for a set of molecules
Value expressed in %; do not type the unit.

N#Cc1ccc(O[C@H]2CC[C@H](NC(=O)c3ccc(N4CCC(N5CCC(N6CCC7(CC6)COc6c7ccc7c6CN(C6CCC(=O)NC6=O)C7=O)CC5)CC4)nn3)CC2)cc1Cl (some centres unmarked) | 75

Item N#Cc1ccc(O[C@H]2CC[C@H](NC(=O)c3ccc(N4CC(N5CCC6(CCc7ccc8c(c7O6)CN(C6CCC(=O)NC6=O)C8=O)CC5)C4)nn3)CC2)cc1Cl (some centres unmarked) has what recorded inhibition at 0.01 µM?
12

What value of measured inhibition at 0.01 µM is listed for N#Cc1ccc(O[C@H]2CC[C@H](NC(=O)c3ccc(N4CC(N5CCC6(CC5)COc5c6ccc6c5CN(C5CCC(=O)NC5=O)C6=O)C4)nn3)CC2)cc1Cl (some centres unmarked) ?
40

Value lookup for inhibition at 0.01 µM; key = N#Cc1ccc(O[C@H]2CC[C@H](NC(=O)c3ccc(N4CCC(N5CCC6(CC5)CC(F)(F)c5cc7c(cc5O6)C(=O)N(C5CCC(=O)NC5=O)C7=O)CC4)nn3)CC2)cc1Cl (some centres unmarked)
29

Look up inhibition at 0.01 µM: COc1cc(O[C@H]2CC[C@H](NC(=O)c3ccc(N4CCC(CN5CCC6(CC5)COc5c6ccc6c5C(=O)N(C5CCC(=O)NC5=O)C6=O)(OC)CC4)cc3)CC2)ccc1C#N (some centres unmarked)
-40
